Test system: Aspergillus niger
Test Protocol: Antimicrobial activity against Aspergillus niger MTCC 282 assessed as diameter of growth zone inhibition by agar streak dilution method; also: test concentration or dose not given here
Assay type: functional
Parameter: diameter of the inhibition zone (DIZ) (mm)
Answers are plain numbers, in mm.

Study these solved cases before continuing.
Cc1ccccc1N1C(=O)CSC1c1cc2ccccc2nc1S (stereo unspecified)	16
O=C1C(Cl)C(c2cc3ccccc3nc2S)N1c1ccc(F)cc1 (stereo unspecified)	25
O=C1CSC(c2cc3ccccc3nc2S)N1c1ccc([N+](=O)[O-])cc1 (stereo unspecified)	25

Provide diameter of the inhibition zone (DIZ) for all items below, preserving their order.
1. Cc1cccc(N2C(=O)CSC2c2cc3ccccc3nc2S)c1 (stereo unspecified)
2. O=C1C(Cl)C(c2cc3ccccc3nc2S)N1c1cccc([N+](=O)[O-])c1 (stereo unspecified)
3. O=C1CSC(c2cc3ccccc3nc2S)N1c1ccc(F)cc1 (stereo unspecified)

1: 20; 2: 24; 3: 26

---

Provide the reported MIC of each item.
System: Bacillus subtilis
Test Protocol: Antimicrobial activity against Bacillus subtilis MTCC 430 assessed as growth inhibition by agar streak dilution method
Type: functional
Kindly write the number and append the unit.

Study these solved cases before continuing.
O=C1CSC(c2cc3ccccc3nc2S)N1c1ccc(F)cc1 (stereo not drawn)	6.25 µg/mL
O=C1CSC(c2cc3ccccc3nc2S)N1c1ccc([N+](=O)[O-])cc1 (stereo not drawn)	50 µg/mL

Next item in the queue.
// MIC lookup, molecule = O=C1CSC(c2cc3ccccc3nc2S)N1c1ccccc1Cl (stereo not drawn) , result: 12.5 µg/mL

---

System: Escherichia coli
Test Protocol: Antimicrobial activity against Escherichia coli MTCC 739 assessed as diameter of growth zone inhibition by agar streak dilution method; also: test concentration or dose not given here
Format: functional
Parameter: diameter of the inhibition zone (DIZ) (mm)
Numbers only, in mm.

Study these solved cases before continuing.
Cc1cccc(N2C(=O)C(Cl)C2c2cc3ccccc3nc2S)c1 (stereo unspecified)	17
O=C1CSC(c2cc3ccccc3nc2S)N1c1cccc([N+](=O)[O-])c1 (stereo unspecified)	24
O=C1C(Cl)C(c2cc3ccccc3nc2S)N1c1ccc([N+](=O)[O-])cc1 (stereo unspecified)	25
Cc1ccccc1N1C(=O)CSC1c1cc2ccccc2nc1S (stereo unspecified)	15

// diameter of the inhibition zone (DIZ) lookup, compound = O=C1CSC(c2cc3ccccc3nc2S)N1c1ccccc1[N+](=O)[O-] (stereo unspecified) , result: 23

---

Tested on: Aspergillus niger
Test Protocol: Antimicrobial activity against Aspergillus niger MTCC 282 assessed as diameter of growth zone inhibition by agar streak dilution method; also: test concentration or dose not given here
Format: functional
Parameter: diameter of the inhibition zone (DIZ) (mm)
Give bare numbers, in mm.

Study these solved cases before continuing.
O=C1C(Cl)C(c2cc3ccccc3nc2S)N1c1ccc(Cl)cc1 (stereo unspecified)	25
Cc1ccc(N2C(=O)CSC2c2cc3ccccc3nc2S)cc1 (stereo unspecified)	17
O=C1CSC(c2cc3ccccc3nc2S)N1c1cccc(Cl)c1 (stereo unspecified)	25
O=C1C(Cl)C(c2cc3ccccc3nc2S)N1c1ccccc1[N+](=O)[O-] (stereo unspecified)	23
O=C1CSC(c2cc3ccccc3nc2S)N1c1ccccc1[N+](=O)[O-] (stereo unspecified)	23

// diameter of the inhibition zone (DIZ) lookup, compound = O=C1CSC(c2cc3ccccc3nc2S)N1c1ccccc1 (stereo unspecified) , result: 16

---

System: Bacillus subtilis
Test Protocol: Antimicrobial activity against Bacillus subtilis MTCC 430 assessed as growth inhibition by agar streak dilution method
Assay type: functional
Parameter: log10 MIC (log10 of the value in µg/mL)
Scale type: logarithmic (base 10). Underlying MIC unit: µg/mL.

Provide log10 MIC for all items below, preserving their order.
1. O=C1CSC(c2cc3ccccc3nc2S)N1c1ccccc1[N+](=O)[O-] (stereo unspecified)
2. O=C1C(Cl)C(c2cc3ccccc3nc2S)N1c1ccccc1 (stereo unspecified)

1.80
2.00
